Target: Estrogen Receptor (ERα) in MCF-7 human ductal carcinoma breast cell line (Homo sapiens, UniProt P03372)
Construct: endogenous in cells; host or cells: MCF-7
Sequence (P03372 1-595): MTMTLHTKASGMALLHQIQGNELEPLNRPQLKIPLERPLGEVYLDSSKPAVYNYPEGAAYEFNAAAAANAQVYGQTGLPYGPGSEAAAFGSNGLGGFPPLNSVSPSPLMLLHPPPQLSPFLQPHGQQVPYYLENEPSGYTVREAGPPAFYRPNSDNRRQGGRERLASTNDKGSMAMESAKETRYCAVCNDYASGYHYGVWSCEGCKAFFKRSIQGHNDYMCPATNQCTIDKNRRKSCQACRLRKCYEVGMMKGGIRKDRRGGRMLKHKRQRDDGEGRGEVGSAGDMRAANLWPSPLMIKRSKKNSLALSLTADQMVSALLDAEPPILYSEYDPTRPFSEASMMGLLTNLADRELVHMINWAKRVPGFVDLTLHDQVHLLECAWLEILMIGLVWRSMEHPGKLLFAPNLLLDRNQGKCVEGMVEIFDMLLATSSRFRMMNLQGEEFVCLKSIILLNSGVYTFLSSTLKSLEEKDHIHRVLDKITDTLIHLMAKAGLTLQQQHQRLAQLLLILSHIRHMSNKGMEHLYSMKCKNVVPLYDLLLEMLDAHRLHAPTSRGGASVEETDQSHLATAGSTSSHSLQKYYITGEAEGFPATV
Test: MCF-7 ER degradation assay (cell based immuno-fluorescence)
Conditions: MCF-7 cells, 0.3 μM; ER degradation by fulvestrant at 0.3 μM is defined as 100%
assay endpoint: ER degradation ≥ 90% at 0.3 μM

- Cc1ncsc1-c1ccc(CNC(=O)[C@@H]2C[C@@H](O)CN2C(=O)[C@@H](NC(=O)COCCCOCCOc2cc(F)c([C@@H]3c4[nH]c5ccccc5c4C[C@@H](C)N3CC(C)(C)F)c(F)c2)C(C)(C)C)cc1: ••
- Cc1ncsc1-c1ccc(CNC(=O)[C@@H]2C[C@@H](O)CN2C(=O)[C@@H](NC(=O)CCCCOCCCCCOc2cc(F)c([C@@H]3c4[nH]c5ccccc5c4C[C@@H](C)N3CC(C)(C)F)c(F)c2)C(C)(C)C)cc1: ••
- CC(=O)O[C@@H]1C[C@@H](C(=O)NCc2ccc(-c3scnc3C)cc2)N(C(=O)[C@@H](NC(=O)COCCOCCOCCOc2cc(F)c([C@@H]3c4[nH]c5ccccc5c4C[C@@H](C)N3CC(C)(C)F)c(F)c2)C(C)(C)C)C1: •
- Cc1ncsc1-c1ccc(CNC(=O)[C@@H]2C[C@@H](O)CN2C(=O)[C@@H](NC(=O)COCCOCCOCCOCCOc2cc(F)c([C@@H]3c4[nH]c5ccccc5c4C[C@@H](C)N3CC(C)(C)F)c(F)c2)C(C)(C)C)cc1: ••

Sourced from patent US10519152B2
